# run-description: Acute toxicity in ip dosed CF1 mouse
# Format: organism-based
# particulars: in vivo
outcome-measure: LD50 (µmol/kg)

>>> df
                                   compound  outcome_measure  unit_abbreviation  measured_number
0  COc1ccc(C(=O)N2CC3CC(CN(C)C3)C2)cc1.O=C(O)/C=C/C(=O)O             LD50            µmol/kg              463
1     CCCCN1CC2CC(C1)CN(C(=O)c1ccccc1)C2.Cl             LD50            µmol/kg              500
2  COc1cc(C(=O)N2CC3CC(CN(C)C3)C2)cc(OC)c1OC.O=C(O)/C=C/C(=O)O             LD50            µmol/kg              535
3  CC(C)N(CCC(C(N)=O)(c1ccccc1)c1ccccn1)C(C)C (stereo not given) [DISOPYRAMIDE]             LD50            µmol/kg              517
4  CN1CC2CC(C1)CN(C(=O)c1ccccc1)C2.O=C(O)/C=C/C(=O)O             LD50            µmol/kg              621

* * *

The compounds listed here are annotated with their ED25.
# run-description: Toxicity in New Zealand rabbit assessed as reduction in force of left atrial contraction
# Type: tissue-based, Oryctolagus cuniculus, Cardiac atrium
outcome-measure: ED25 (µM)

>>> df
                                   compound  outcome_measure  relational_operator  measured_number
0  CN1CC2CC(C1)CN(C(=O)c1ccc(Cl)cc1)C2.O=C(O)/C=C/C(=O)O             ED25                    =              400
1  COc1ccc(C(=O)N2CC3CC(CN(C)C3)C2)cc1.O=C(O)/C=C/C(=O)O             ED25                    >              400
2  CC(C)N(CCC(C(N)=O)(c1ccccc1)c1ccccn1)C(C)C (centres undefined) [DISOPYRAMIDE]             ED25                    =               56
3  CN1CC2CC(C1)CN(C(=O)c1ccccc1)C2.O=C(O)/C=C/C(=O)O             ED25                    >              400

* * *

# maps each entry to its LD50
# run-description: Acute toxicity in ip dosed CF1 mouse
# Type: organism-based
# particulars: in vivo
outcome-measure: LD50 (µmol/kg)

In [3]: df
Out[3]:
                               query_smiles  unit_abbreviation  measured_number
0  CCCCN1CC2CC(C1)CN(C(=O)c1ccc(Cl)cc1)C2.O=C(O)/C=C/C(=O)O            µmol/kg              463
1  CN1CC2CC(C1)CN(C(=O)c1ccc(Cl)cc1)C2.O=C(O)/C=C/C(=O)O            µmol/kg              535
2  CCCCN1CC2CC(C1)CN(C(=O)c1ccc(OC)cc1)C2.O=C(O)/C=C/C(=O)O            µmol/kg              488
3  CN1CC2CC(C1)CN(C(=O)c1ccc(Cl)c(Cl)c1)C2.O=C(O)/C=C/C(=O)O            µmol/kg              492
4  CCCCN1CC2CC(C1)CN(C(=O)c1ccc(Cl)c(Cl)c1)C2.O=C(O)/C=C/C(=O)O            µmol/kg              605

The values you see were collected from ChEMBL document CHEMBL3244421.
